half-life by entry:
- run description: Compound was tested for its half life period at pH 6.0 using Sodium phosphate buffer
- Format: ADME

smiles structure	half-life / days
CCCC(=O)OCC(COC(=O)CCC)OCn1cnc2c(F)nc(N)nc21	39
CC(C)C(=O)OCC(COC(=O)C(C)C)OCn1cnc2c(F)nc(N)nc21	29
CCC(=O)OCC(COC(=O)CC)OCn1cnc2c(F)nc(N)nc21	35

----------
half-life by entry:
- run description: Compound was tested for its half life period at pH 7.4 using Sodium phosphate buffer
- Assay type: ADME

compound	half-life, days
CCCC(=O)OCC(CO)OCn1cnc2c(F)nc(N)nc21 (centres undefined)	21
CC(=O)OCC(CO)OCn1cnc2c(F)nc(N)nc21 (centres undefined)	14
CC(C)C(=O)OCC(COC(=O)C(C)C)OCn1cnc2c(F)nc(N)nc21	7
CCCC(=O)OCC(COC(=O)CCC)OCn1cnc2c(F)nc(N)nc21	11
CCC(=O)OCC(CO)OCn1cnc2c(F)nc(N)nc21 (centres undefined)	17
CC(C)C(=O)OCC(CO)OCn1cnc2c(F)nc(N)nc21 (centres undefined)	32
CCC(=O)OCC(COC(=O)CC)OCn1cnc2c(F)nc(N)nc21	7
Nc1nc(F)c2ncn(COC(CO)CO)c2n1	69
CC(=O)OCC(COC(C)=O)OCn1cnc2c(F)nc(N)nc21	8
